Parameter MIC: see the listing below.
Tested on: Micrococcus luteus
METHOD NOTES: Antibacterial activity against Micrococcus luteus ATCC 1110 after 18 hrs by conventional agar dilution method
Type: functional
REPORTED CONDITIONS: ATCC 1110, 18 h
OUTCOME MEASURE: MIC (µg/mL)

# COMPOUND, OUTCOME MEASURE, REPORTED RESULT
data = [
    ("COc1c(N2CCN(c3nnc(-c4ncc([N+](=O)[O-])n4C)s3)C(C)C2)c(F)cc2c(=O)c(C(=O)O)cn(C3CC3)c12 (centres undefined)", "MIC", 2),
    ("COc1c(N2CCN(c3nnc(-c4cccc([N+](=O)[O-])c4)s3)C(C)C2)c(F)cc2c(=O)c(C(=O)O)cn(C3CC3)c12 (centres undefined)", "MIC", 1),
    ("COc1c(N2CCNC(C)C2)c(F)cc2c(=O)c(C(=O)O)cn(C3CC3)c12 (centres undefined) [GATIFLOXACIN]", "MIC", 1),
    ("COc1c(N2CCN(c3nnc(-c4ccc([N+](=O)[O-])s4)s3)C(C)C2)c(F)cc2c(=O)c(C(=O)O)cn(C3CC3)c12 (centres undefined)", "MIC", 4),
]

Reference source: ChEMBL document CHEMBL1138578
